Test: Partition coefficient, log P at pH 7.4
Assay type: physicochemical
Conditions: octanol/water
assay.readout: logD

{"record.smiles": "CN(C)c1ccc(C#Cc2ccc(OCCOCC[18F])cc2)cc1", "quantitative.result": 3.12}
{"record.smiles": "CNc1ccc(C#Cc2ccc(OCCOCC[18F])cc2)cc1", "quantitative.result": 3.48}
{"record.smiles": "CN(C)c1ccc(C#Cc2ccc(OCCOCCOCC[18F])cc2)cc1", "quantitative.result": 3.18}
{"record.smiles": "CNc1ccc(C#Cc2ccc(OCCOCCOCC[18F])cc2)cc1", "quantitative.result": 3.07}

---

Tested on: Bone
Assay: Biodistribution in ICR mouse bone at 5 to 10 uCi, iv after 1 hr
Format: ADME, organism-based, Bone element
Details: in vivo
assay.readout: Drug uptake (% ID/g)

Recorded Drug uptake, per entry:
{"record.smiles": "CN(C)c1ccc(C#Cc2ccc(OCCOCC[18F])cc2)cc1", "assay.readout": "Drug uptake", "quantitative.result": 1.36}
{"record.smiles": "CNc1ccc(C#Cc2ccc(OCCOCCOCC[18F])cc2)cc1", "assay.readout": "Drug uptake", "quantitative.result": 0.65}

1: CN(C)c1ccc(C#Cc2ccc(OCCOCCOCC[18F])cc2)cc1
2: CNc1ccc(C#Cc2ccc(OCCOCC[18F])cc2)cc1
Query :: Lower value of Drug uptake belongs to which: 1 or 2 ? Give the label under which the chosen entry appears.
Result :: 1

---

System: Heart
Assay: Biodistribution in ICR mouse heart at 5 to 10 uCi, iv after 2 hrs
Format: ADME, organism-based
Details: in vivo
assay.readout: Drug uptake (% ID/g)

Please review the following examples before continuing.
{"record.smiles": "CNc1ccc(C#Cc2ccc(OCCOCC[18F])cc2)cc1", "Drug uptake [% ID/g]": 2.6}
{"record.smiles": "CN(C)c1ccc(C#Cc2ccc(OCCOCCOCC[18F])cc2)cc1", "Drug uptake [% ID/g]": 0.84}

A: CNc1ccc(C#Cc2ccc(OCCOCCOCC[18F])cc2)cc1
B: CN(C)c1ccc(C#Cc2ccc(OCCOCC[18F])cc2)cc1
Query :: Min Drug uptake? A | B Reply briefly: the label of your chosen item.
Result :: A

---

Tested on: Spleen
Assay: Biodistribution in ICR mouse spleen at 5 to 10 uCi, iv after 2 hrs
Type: ADME, organism-based
Settings: in vivo
assay.readout: Drug uptake (% ID/g)

Worked examples follow.
{"record.smiles": "CN(C)c1ccc(C#Cc2ccc(OCCOCC[18F])cc2)cc1", "Drug uptake, % ID/g": 2.31}
{"record.smiles": "CN(C)c1ccc(C#Cc2ccc(OCCOCCOCC[18F])cc2)cc1", "Drug uptake, % ID/g": 1.17}

P: CNc1ccc(C#Cc2ccc(OCCOCCOCC[18F])cc2)cc1
Q: CNc1ccc(C#Cc2ccc(OCCOCC[18F])cc2)cc1
Query :: Of P and Q , which one carries the higher reported Drug uptake? Let me know the label of the one you choose.
Result :: Q

---

System: Bone
Test: Biodistribution in ICR mouse bone at 5 to 10 uCi, iv after 2 hrs
Type: ADME, organism-based, Bone element
Settings: in vivo
assay.readout: Drug uptake (% ID/g)

Example entries begin here.
{"record.smiles": "CN(C)c1ccc(C#Cc2ccc(OCCOCCOCC[18F])cc2)cc1", "Drug uptake / % ID/g": 0.7}
{"record.smiles": "CN(C)c1ccc(C#Cc2ccc(OCCOCC[18F])cc2)cc1", "Drug uptake / % ID/g": 1.65}

I: CNc1ccc(C#Cc2ccc(OCCOCC[18F])cc2)cc1
II: CNc1ccc(C#Cc2ccc(OCCOCCOCC[18F])cc2)cc1
Query :: API: POST /compare with I and II ; response names the item with higher Drug uptake. Select an item and report its label.
Result :: I
(I: 2.07 % ID/g, II: 0.82 % ID/g)

---

System: Zone of skin
Experiment: Biodistribution in ICR mouse skin at 5 to 10 uCi, iv after 30 mins
Type: ADME, organism-based
Conditions: in vivo, 0.5 h
assay.readout: Drug uptake (% ID/g)

{"record.smiles": "CNc1ccc(C#Cc2ccc(OCCOCCOCC[18F])cc2)cc1", "Drug uptake / % ID/g": 1.4}

a: CN(C)c1ccc(C#Cc2ccc(OCCOCC[18F])cc2)cc1
b: CN(C)c1ccc(C#Cc2ccc(OCCOCCOCC[18F])cc2)cc1
Query :: So which one has the bigger Drug uptake here, a or b ? // caller expects the label of the chosen entry
Result :: a
(a: 2.23 % ID/g, b: 1.41 % ID/g)

---

System: Liver
Experiment: Biodistribution in ICR mouse liver at 5 to 10 uCi, iv after 1 hr
Assay type: ADME, organism-based
Settings: in vivo
assay.readout: Drug uptake (% ID/g)

{"record.smiles": "CN(C)c1ccc(C#Cc2ccc(OCCOCCOCC[18F])cc2)cc1", "unit.abbreviation": "% ID/g", "Drug uptake": 8.13}
{"record.smiles": "CNc1ccc(C#Cc2ccc(OCCOCCOCC[18F])cc2)cc1", "unit.abbreviation": "% ID/g", "Drug uptake": 10.2}

A: CNc1ccc(C#Cc2ccc(OCCOCC[18F])cc2)cc1
B: CN(C)c1ccc(C#Cc2ccc(OCCOCC[18F])cc2)cc1
Query :: Returns: the argument ( A or B ) having the larger Drug uptake. Respond using the label that marks the chosen record.
Result :: A

---

Test system: Bone
Experiment: Biodistribution in ICR mouse bone at 5 to 10 uCi, iv after 2 mins
Format: ADME, organism-based, Bone element
Details: in vivo
assay.readout: Drug uptake (% ID/g)

{"record.smiles": "CN(C)c1ccc(C#Cc2ccc(OCCOCC[18F])cc2)cc1", "Drug uptake / % ID/g": 1.78}
{"record.smiles": "CN(C)c1ccc(C#Cc2ccc(OCCOCCOCC[18F])cc2)cc1", "Drug uptake / % ID/g": 1.51}
{"record.smiles": "CNc1ccc(C#Cc2ccc(OCCOCCOCC[18F])cc2)cc1", "Drug uptake / % ID/g": 1.5}
{"record.smiles": "CNc1ccc(C#Cc2ccc(OCCOCC[18F])cc2)cc1", "Drug uptake / % ID/g": 1.54}

---

Test system: Lung
Assay: Biodistribution in ICR mouse lung at 5 to 10 uCi, iv after 1 hr
Type: ADME, organism-based
Details: in vivo
assay.readout: Drug uptake (% ID/g)

1: CN(C)c1ccc(C#Cc2ccc(OCCOCC[18F])cc2)cc1
2: CNc1ccc(C#Cc2ccc(OCCOCC[18F])cc2)cc1
3: CN(C)c1ccc(C#Cc2ccc(OCCOCCOCC[18F])cc2)cc1
4: CNc1ccc(C#Cc2ccc(OCCOCCOCC[18F])cc2)cc1
Query :: Arrange these compounds by their Drug uptake, starting with the largest number. List labels; respect the requested ordering.
Result :: 2, 1, 4, 3
(2: 6.01 % ID/g, 1: 3.82 % ID/g, 4: 2.04 % ID/g, 3: 1.26 % ID/g)

---

Test system: Zone of skin
Assay: Biodistribution in ICR mouse skin at 5 to 10 uCi, iv after 2 mins
Format: ADME, organism-based
Conditions: in vivo
assay.readout: Drug uptake (% ID/g)

{"record.smiles": "CN(C)c1ccc(C#Cc2ccc(OCCOCCOCC[18F])cc2)cc1", "tgt": "Zone of skin", "unit.abbreviation": "% ID/g", "Drug uptake": 0.68}
{"record.smiles": "CNc1ccc(C#Cc2ccc(OCCOCC[18F])cc2)cc1", "tgt": "Zone of skin", "unit.abbreviation": "% ID/g", "Drug uptake": 0.94}

A: CNc1ccc(C#Cc2ccc(OCCOCCOCC[18F])cc2)cc1
B: CN(C)c1ccc(C#Cc2ccc(OCCOCC[18F])cc2)cc1
Query :: I need your help: which of the pair A , B has higher Drug uptake? Label of pick, please.
Result :: A
(A: 1.24 % ID/g, B: 0.85 % ID/g)

---

Tested on: Bone
Assay: Biodistribution in ICR mouse bone at 5 to 10 uCi, iv after 30 mins
Assay type: ADME, organism-based, Bone element
Details: in vivo, 0.5 h
assay.readout: Drug uptake (% ID/g)

Consider the reported Drug uptake for these compounds:
{"record.smiles": "CN(C)c1ccc(C#Cc2ccc(OCCOCCOCC[18F])cc2)cc1", "tgt": "Bone", "quantitative.result": 0.64}
{"record.smiles": "CN(C)c1ccc(C#Cc2ccc(OCCOCC[18F])cc2)cc1", "tgt": "Bone", "quantitative.result": 1.41}

P: CNc1ccc(C#Cc2ccc(OCCOCC[18F])cc2)cc1
Q: CNc1ccc(C#Cc2ccc(OCCOCCOCC[18F])cc2)cc1
Query :: Higher Drug uptake between P and Q ? Identify your pick by its label.
Result :: P

---

System: Heart
Experiment: Biodistribution in ICR mouse heart at 5 to 10 uCi, iv after 2 mins
Assay type: ADME, organism-based
Settings: in vivo
assay.readout: Drug uptake (% ID/g)

{"record.smiles": "CN(C)c1ccc(C#Cc2ccc(OCCOCCOCC[18F])cc2)cc1", "quantitative.result": 9.97}
{"record.smiles": "CNc1ccc(C#Cc2ccc(OCCOCCOCC[18F])cc2)cc1", "quantitative.result": 4.21}

I: CNc1ccc(C#Cc2ccc(OCCOCC[18F])cc2)cc1
II: CN(C)c1ccc(C#Cc2ccc(OCCOCC[18F])cc2)cc1
Query :: Hi there! Just curious which has the higher Drug uptake between I and II . When you have decided, please share the label of that item.
Result :: II
(II: 10.5 % ID/g, I: 4.73 % ID/g)
